tgt: T1, KDR-Fc fusion (chimeric fusion of Ig Fc region with human KDR, R & D Systems #357-KD-050) (human, UniProt P35968 20-764)
T1 construct: Bought carrier-free from R & D Systems; also called KDR-Fc fusion protein target; KDR target; not shown: Ig Fc region
protocolDescription: BIAcore SPR, KDR-Fc immobilized on chip, synthetic peptide flowed over
No end group written: not given here.
reportedEndpoint: Kd (nM)

- binder: "Ac-SGRTTCHHQISGPHGKICVNYGS (cysteine pairing not given here) [SEQ ID NO 22 synthetic polypeptide]"
  reportedEndpoint: "Kd"
  recordedMeasurement: 650
- binder: "Ac-SGRLDCDKVFSGPYGKVCVSYGS (cysteine pairing not given here) [SEQ ID NO 49 synthetic polypeptide]"
  reportedEndpoint: "Kd"
  recordedMeasurement: 1000
